- Tested on: NCI-H522 lung
- EXPERIMENT_NOTES: NCI-60 one-dose screen, 48 h
- CONDITIONS_USED: 10 µM unless noted
This is part of a sample that, as a whole, favours compounds with a hit. Of some 83,000 tested, about 20% had one in any assay. The source made the active and inactive calls. How the source made its calls: active means growth percent below 10; inactive means the rest.
Your answer must be one of the following: 1 = active, -1 = inactive

Enquiry: Assay outcome for COc1cc(C)cc2oc3oc(=O)c(-c4nc5ccccc5s4)cc3c(=O)c12 : what was it?
Return: -1

Enquiry: Query C#C[C@]1(O)CC[C@H]2[C@@H]3CC=C4c5nc(Nc6ccccn6)sc5CC[C@]4(C)[C@H]3CC[C@@]21C next
Return: 1

Enquiry: Moving on to C=C(C)[C@@H]1CC[C@]2(C)[C@H](CC[C@@H]3[C@@H]([C@@](C)(O)CCC=C(C)C)CC[C@]32C)[C@@]1(C)CCC(=O)N1CCN(C)CC1
Return: 1

Enquiry: Do the same for C[C@@H]1C[C@H]2C(=O)O[C@@H](C)[C@H](NC(=O)[C@H](Cc3cc(F)cc(F)c3)NC(=O)Nc3ccc(Cl)cc3F)C(=O)N3C[C@H](O)C[C@H]3C(=O)N3CCN(C)C[C@H]3C(=O)N[C@@H](C)C(=O)N2C1 please
Return: -1

Enquiry: Same lookup for CCN1CCN(CC(=O)Nc2nc3ccc(NCc4ccc(Cl)cc4)cc3s2)CC1 , please.
Return: -1

Enquiry: Next compound: CCOC(=O)C(c1ccccc1)N1C(=O)c2ccccc2C1=O (centres undefined)
Return: -1

Enquiry: Likewise for NC(=O)CC1C=CCC1 (centres undefined) ?
Return: -1

Enquiry: Param item: CCn1cc(-c2cc(-c3ccc(Cl)cc3)nc(N)n2)c(-c2ccc(Br)cc2)n1
Return: -1

Enquiry: Repeat for the following compound: CCCCCCNC(=O)Nc1ncnc2c1ncn2-c1ccccc1
Return: -1

* * *

- Test system: NCI-H522 lung
- EXPERIMENT_NOTES: NCI-60 one-dose screen, 48 h
- CONDITIONS_USED: 10 µM unless noted
This is part of a sample that, as a whole, favours compounds with a hit. Of some 83,000 tested, about 20% had one in any assay. The source made the active and inactive calls. How the source made its calls: active means growth percent below 10; inactive means the rest.
The reply should name one outcome from active, inactive

Enquiry: Give the logged outcome of this assay for the following compound: CCc1ccc(C2=C/C(=C/c3ccccc3)C(=O)N2CCc2ccc(S(N)(=O)=O)cc2)cc1
Return: inactive

Enquiry: Entry to check: C=C(C)[C@@H]1CC[C@]2(C(=O)OC)CC[C@]3(C)[C@H](CC[C@@H]4[C@@]5(C)CC/C(=N\OCCC(=NCCC#N)NOCCC#N)C(C)(C)[C@@H]5CC[C@]43C)[C@@H]12
Return: inactive

Enquiry: What do you get for CC/C=C(\C)C(CCC)(CN=O)C(=O)OCC (stereo not drawn) ?
Return: inactive

Enquiry: Could you do the same for Cc1ccc(-c2cn(C/C=C3\C=CN(S(=O)(=O)c4ccccc4)CC3)nn2)cc1 , please?
Return: inactive

Enquiry: Would you mind doing O=C(C[n+]1ccn(CC(OCc2ccc(Cl)cc2Cl)c2ccc(Cl)cc2Cl)c1)c1ccc(F)cc1 (stereo not drawn) as well?
Return: active

Enquiry: Repeat for the following compound: Cc1cccc(C[C@H](NC(=O)Nc2ccc(C)cc2F)C(=O)N[C@@H]2C(=O)N3C[C@H](O)C[C@H]3C(=O)N3CCN(C)C[C@H]3C(=O)N[C@@H](C)C(=O)N3C[C@H](C)C[C@H]3C(=O)O[C@H]2C)c1
Return: inactive

Enquiry: Repeat with COc1ccc(/C=C/C(=C/c2c(O)[nH]c3cc(Br)ccc23)N=O)cc1
Return: inactive

Enquiry: Follow-up entry: C=C(CC(=O)OC)C(C)=O
Return: inactive

Enquiry: // next record Cc1cc(N2CCCCCC2)nc(N2CCN(CC(=O)Nc3ccc4c(ccn4Cc4ccccc4)c3)CC2)n1
Return: inactive

Enquiry: Lookup C#CCNC(=O)CC[C@@H](C)[C@H]1CC[C@H]2[C@@H]3CC[C@@H]4CC(=O)CC[C@]4(C)[C@H]3CC[C@]12C
Return: active

Enquiry: Likewise for CCCCN(CCCC)CC(O)c1ccc(OCc2ccccc2)c2ccccc12 (stereo not drawn) ?
Return: inactive

Enquiry: Continue with O=C(N/N=C\c1cc(Cl)ccc1O)N/N=C/c1cc(Cl)ccc1O
Return: inactive

Enquiry: Note, next up: Cn1cc(-c2noc(-c3cn(C)c4ncc(F)cc34)n2)c2cc(Br)ccc21
Return: inactive

Enquiry: Thanks! And Cc1ccc(S(=O)(=O)Oc2ccc(Br)cc2Br)cc1 ?
Return: inactive

Enquiry: Same thing, different compound: N#C/C(C(=O)c1ccccc1)=C1/C(=O)Nc2ccccc21
Return: inactive

Enquiry: Try this compound too: COc1ccc2c(c1)C(C)Cc1c(Cl)nc(C)nc1N2C (stereo not drawn)
Return: active

Enquiry: How about C=C(C)[C@@H]1CC[C@]2(C(=O)NCCNCCNCCN)CC[C@]3(C)[C@H](CC[C@@H]4[C@@]5(C)CCC(=O)C(C)(C)[C@@H]5CC[C@]43C)[C@@H]12 ?
Return: active

Enquiry: What do you have for O=C(CSc1nc2ccc([N+](=O)[O-])cc2[nH]1)Nc1cccc(Cl)c1 ?
Return: active

* * *

- System: SW-620 colon
- EXPERIMENT_NOTES: NCI-60 one-dose screen, 48 h
- CONDITIONS_USED: 10 µM unless noted
The panel holds about 83,000 compounds, 20% with a hit somewhere; the sample as a whole holds those more often. Activity calls are given as the source filed them. How the source made its calls: active means growth percent below 10; inactive means the rest.
Respond with a class label; see active, inactive

Enquiry: Name the outcome recorded for CSc1nc(=S)c2nc(SC)n(-c3ccccc3)c2[nH]1 in the assay.
Return: inactive

Enquiry: Now consider Cc1cc2c(C(C)C)c(O)c(O)c(C=NCc3ccoc3)c2c(O)c1-c1c(C)cc2c(C(C)C)c(O)c(O)c(C=NCc3ccco3)c2c1O and answer again.
Return: inactive

Enquiry: Consider next the compound CCCCCCCCCCCCCCCCCCNC(=S)N/N=C/c1ccc(OC)c(OC)c1 in the same way.
Return: inactive

Enquiry: // same read-out, input: Cc1ccc(S(=O)(=O)N/N=C2\CC3CCC2(C)C3(C)C)cc1 (centres undefined)
Return: inactive

Enquiry: Input CC(C)(C)c1cc(C(=O)Nc2ccc(C(=O)NCCN)cc2)cc(C(C)(C)C)c1
Return: active

Enquiry: Now consider O=C(O)CSCc1nnc2n(Cc3ccccc3)c(=O)c3c4c(sc3n12)CCCC4 and answer again.
Return: inactive

Enquiry: Record: CNC(=O)c1cc(Oc2ccc3nc(NC(=O)c4ccc5ncccc5c4)sc3c2)ccn1
Return: inactive

Enquiry: Query CCN(CC)c1ccc2cc(NC(=O)OCCNC(=O)CCNC(=O)[C@H](CC(C)C)NC(=O)C(C)(C)NC(=O)C(C)(C)NC(=O)[C@H](CC(C)C)NC(=O)CCNC(=O)C(C)(C)NC(=O)[C@H](CC(C)C)NC(=O)CCNC(=O)[C@@](C)(CC)NC(=O)[C@H](C)NC(=O)CCNC(=O)C(C)(C)NC(=O)[C@H](C)NC(=O)[C@@H]3CCCN3C(=O)[C@@](C)(CC)NC(=O)[C@H](Cc3ccccc3)NC(=O)C3CCCN3C(=O)C(C)(C)NC(=O)C3CCCN3C(=O)C(C)(C)NC(C)=O)c(=O)oc2c1 (some centres undefined) next
Return: active

Enquiry: How about Nn1c(Nc2ccc(S(=O)(=O)Nc3ncccn3)cc2)nnc(/C=C/c2c(O)ccc3ccccc23)c1=O ?
Return: inactive

Enquiry: And the next one, CC1(C)C(=O)/C(=C\c2ccco2)C[C@]2(C)[C@H]3CC=C4[C@@H]5C[C@](C)(C(=O)O)CC[C@]5(C)CC[C@@]4(C)[C@]3(C)CC[C@@H]12 ?
Return: active

Enquiry: Can you handle Oc1cc(Nc2ccnc3cc(Cl)ccc23)c2ncccc2c1 next?
Return: inactive

Enquiry: Do the same for Clc1ccccc1/C=N\Nc1ccccn1 please
Return: inactive

Enquiry: Now consider CC[C@]12C=CCN3CC[C@@]4(c5ccc(OC)cc5N(C)[C@H]4[C@@](O)(C(=O)OC)[C@@H]1OC(=O)CCC(=O)N[C@H](Cc1c[nH]c4ccccc14)C(=O)OC)[C@@H]32 and answer again.
Return: active

Enquiry: Lookup C=CCCC1(C)NC(=O)NC1=O (centres undefined)
Return: inactive

Enquiry: Do the same for O=C1NC(=O)c2cc([N+](=O)[O-])cc3cccc1c23 please
Return: inactive

Enquiry: Entry Cc1ccc2c(c1)C(C)Cc1c(Cl)ncnc1N2C (centres undefined) please
Return: inactive

Enquiry: Next up: O=[N+]([O-])c1cc([N+](=O)[O-])c(NN=C(c2ccc(O)cc2)c2ccc(O)cc2)cc1Cl
Return: active

Enquiry: Similarly, O=C(O)c1ccccc1C(F)(F)F ?
Return: inactive

Enquiry: Try O=C(NNc1ccc(-c2ccccc2)nn1)c1ccccc1 next.
Return: inactive

Enquiry: Also CCN(CCNc1ccc(C)c2sc3cc(Cl)ccc3c(=O)c12)CC(C)O (centres undefined) ?
Return: inactive

Enquiry: Now give it for C=C1C(=O)O[C@H]2[C@H]1CC/C(COC(=O)NCc1ccc(Cn3c(=O)sn(-c4ccc(Cl)cc4)c3=O)cc1)=C\CC[C@@]1(C)O[C@@H]21 too.
Return: active

Enquiry: Try this compound next: C=C(C)[C@@H]1CC[C@]2(C(=O)NCCNCCNCCN)CC[C@]3(C)[C@H](CC[C@@H]4[C@@]5(C)CCC(=O)C(C)(C)[C@@H]5CC[C@]43C)[C@@H]12
Return: active

Enquiry: What would you report for COc1ccc(/C=C/C(=C/c2c(O)[nH]c3cc(Br)ccc23)N=O)cc1 ?
Return: inactive

Enquiry: Next entry: C=C(C)[C@@H]1CC[C@]2(C(N)=O)CC[C@]3(C)[C@H](CC[C@@H]4[C@@]5(C)C/C(=C/c6cccnc6)[C@H](O)C(C)(C)[C@@H]5CC[C@]43C)[C@@H]12
Return: inactive

Enquiry: Same read-out for CC1(C)S[C@@H]2[C@H](NC(=O)[C@H](C(=O)O)c3cccs3)C(=O)N2[C@H]1C(=O)O ?
Return: inactive

Enquiry: Cool, now C[n+]1c(-c2ccccc2)c2cc(N)ccc2c2ccccc21
Return: inactive

Enquiry: Please answer likewise for CCCCCN(CCCCC)CCCCCCCCN1CCCc2ccccc21
Return: inactive

Enquiry: Then this compound: CCC(Br)(CC)C(=O)c1ccc(OCC(=O)O)c(Cl)c1Cl
Return: inactive

Enquiry: Another compound: CN(C)c1ccc(-c2ccc(-c3ccc(C(=N)N)cc3)s2)cc1
Return: active

Enquiry: Same thing, different compound: CCOC(=O)c1c[nH]c2cc(OCC3CC3)c(OCC3CC3)cc2c1=O
Return: inactive

Enquiry: Next entry: O=S(=O)(c1ccc(N/N=C\c2ccccc2Cl)cc1)c1ccc(N/N=C/c2ccccc2Cl)cc1
Return: inactive

Enquiry: Okay, and Cc1ccc(S(=O)(=O)NCCCNc2nccc(-c3c(-c4cccc(F)c4)nc4occn34)n2)cc1 ?
Return: inactive

Enquiry: Queued: COc1ccc(C(=O)CCC(=O)O)cc1
Return: inactive

Enquiry: Field entry: Cc1ccc(S(=O)(=O)n2cc(C(=O)C(=O)N3CCCCC3)c3ccccc32)cc1
Return: inactive
